The following sequences are shown together with reported folding stability dG unfold values.
- Procedure Text: folding stability dG unfold from chymotrypsin proteolysis; higher = more stable
I only need the number, in kcal/mol, no unit after it.

Some sequences with recorded folding stability dG unfold:
SAGGSAGGSKKPKAKIKKIEFFPEGNKIVALVEFPDKVIKEIVFENLPPEEAIKKALEFAKKGSAGGSAGGS [r20_181_TrMRF]	1.42
SAGGSAGGSAGGSKIENIKDIERNPNPDGHYMITIPNGWQIVVRMDKNGKMEIEIVPLKSAGGSAGGSAGGS [r4_177_TrROS]	1.88
SAGGSAMKKVTVTVKFPDGTTYTFDMDTESEEEFEKKVREEALKRFPDIPLEDVEVTEVVVTPELLSAGGSA [r15_220_JUSTAS]	2.38

stdin: Fill in: folding stability dG unfold of SKPTLTLKLTVVVKDENGEKKTVTLTIPVSEEELEKLLKEIAKELGLKDVKVVKIEKNKNGFIKITVEVKSA [r9_1101_TrROS_Hall] is ___
stdout: 2.36

stdin: Fill in: folding stability dG unfold of SAGGSAPEPVEFTLGHPDGVPYRVTLTRLPDTDLYLVTVEFPGPEVTFTGVAPLEVLENIPGLTPVSAGGSA [r15_622_TrMRF] is ___
stdout: 1.88

stdin: Fill in: folding stability dG unfold of SAMIVKDLKTKEEIKKVLEEIAKKLGYPNVTPEEAEEILKKIGVKILSIEKNPKNPEKYIIKIKIEKPKSAG [r14_678_JUSTAS] is ___
stdout: 2.34
